test_target: Metabotropic glutamate receptor 3 (Homo sapiens)
Sequence (Q14832 23-879 limits assumed): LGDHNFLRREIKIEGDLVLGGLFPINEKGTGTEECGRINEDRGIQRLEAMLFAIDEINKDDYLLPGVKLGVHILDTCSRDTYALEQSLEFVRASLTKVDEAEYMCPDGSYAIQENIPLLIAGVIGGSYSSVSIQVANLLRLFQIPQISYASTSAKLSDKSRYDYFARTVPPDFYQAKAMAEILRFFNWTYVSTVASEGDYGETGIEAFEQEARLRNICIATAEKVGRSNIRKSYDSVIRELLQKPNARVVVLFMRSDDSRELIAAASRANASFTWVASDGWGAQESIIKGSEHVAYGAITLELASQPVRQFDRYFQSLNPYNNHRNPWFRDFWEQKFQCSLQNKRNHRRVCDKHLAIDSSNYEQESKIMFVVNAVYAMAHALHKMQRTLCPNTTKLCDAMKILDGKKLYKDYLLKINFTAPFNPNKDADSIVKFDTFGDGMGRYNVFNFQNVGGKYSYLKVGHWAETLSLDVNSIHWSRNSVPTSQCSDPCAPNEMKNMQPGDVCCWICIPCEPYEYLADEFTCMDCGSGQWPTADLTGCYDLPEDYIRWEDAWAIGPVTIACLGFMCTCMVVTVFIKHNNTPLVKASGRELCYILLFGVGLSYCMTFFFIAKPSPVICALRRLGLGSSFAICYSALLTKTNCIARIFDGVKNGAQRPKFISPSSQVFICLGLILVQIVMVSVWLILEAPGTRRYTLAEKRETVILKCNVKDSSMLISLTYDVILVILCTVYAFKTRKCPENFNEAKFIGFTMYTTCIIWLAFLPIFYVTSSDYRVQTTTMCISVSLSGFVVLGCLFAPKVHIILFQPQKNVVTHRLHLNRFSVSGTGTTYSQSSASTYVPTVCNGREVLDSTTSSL
assay_remarks: Agonistic activity evaluated in CHO(Chinese hamster ovary) cells expressing chimeric mGluR3/1a receptor
reported_metric: EC50 (µM)
Write it as a number; the unit µM goes unstated.

The following compounds have reported results that may help.
N[C@@H](CCC(=O)O)C(=O)O [GLUTAMIC ACID]: 2.5
N[C@@]1(C(=O)O)CC[C@@H](C(=O)O)C1: 30
NN1C[C@@](N)(C(=O)O)C[C@@H]1C(=O)O: 52

Attention now shifts to the item below.
Record N[C@@]1(C(=O)O)CN[C@@H](C(=O)O)C1 ; system Metabotropic glutamate receptor 3 (Homo sapiens); EC50 = 3

----------
Listed here are compounds together with their documented EC50.
test_target: Metabotropic glutamate receptor 2 (Rattus norvegicus)
Sequence (P31421 whole entry): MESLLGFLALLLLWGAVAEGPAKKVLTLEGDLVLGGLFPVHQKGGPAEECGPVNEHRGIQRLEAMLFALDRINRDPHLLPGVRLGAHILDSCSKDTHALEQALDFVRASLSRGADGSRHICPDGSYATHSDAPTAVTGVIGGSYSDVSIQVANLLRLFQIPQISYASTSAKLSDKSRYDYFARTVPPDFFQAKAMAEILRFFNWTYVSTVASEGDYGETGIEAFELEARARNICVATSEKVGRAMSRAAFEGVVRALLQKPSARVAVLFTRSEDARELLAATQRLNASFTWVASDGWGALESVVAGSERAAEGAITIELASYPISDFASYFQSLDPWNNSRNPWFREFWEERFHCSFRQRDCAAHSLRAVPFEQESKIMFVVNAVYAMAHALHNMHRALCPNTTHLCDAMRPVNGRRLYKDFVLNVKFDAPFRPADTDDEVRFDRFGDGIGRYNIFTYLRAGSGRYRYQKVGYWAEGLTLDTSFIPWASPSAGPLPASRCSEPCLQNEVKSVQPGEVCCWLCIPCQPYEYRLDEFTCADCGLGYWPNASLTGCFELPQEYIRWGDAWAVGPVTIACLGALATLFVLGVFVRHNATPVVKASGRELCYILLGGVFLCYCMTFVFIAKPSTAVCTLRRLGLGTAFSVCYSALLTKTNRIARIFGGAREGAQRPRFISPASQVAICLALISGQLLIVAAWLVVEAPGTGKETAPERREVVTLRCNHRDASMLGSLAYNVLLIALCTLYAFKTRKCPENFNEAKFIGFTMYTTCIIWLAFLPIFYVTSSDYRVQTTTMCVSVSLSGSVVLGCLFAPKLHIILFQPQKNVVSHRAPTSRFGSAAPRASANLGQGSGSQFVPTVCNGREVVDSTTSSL
assay_remarks: Agonistic activity evaluated in CHO(Chinese hamster ovary) cells expressing mGluR2 receptor
The reply should consist of the numeric value with the unit placed after it.

The following compounds have reported results that may help.
N[C@@]1(C(=O)O)CN[C@@H](C(=O)O)C1: 0.2 µM
N[C@@]1(C(=O)O)CC[C@@H](C(=O)O)C1: 2.1 µM

Attention now shifts to the item below.
The compound NN1C[C@@](N)(C(=O)O)C[C@@H]1C(=O)O showed EC50 equal to 4.8 µM
